biological target: IDO1 protein levels in BxPC3 cells (Homo sapiens); assay: IDO1 immunoblotting (degradation); type: cell-based; design: endogenous in cells; host or cells: BxPC3 (DSMZ), IFN-γ stimulated; details: BxPC3 cells, IFN-γ 24 h, washout, compounds 24 h
Sequence (P14902 whole entry): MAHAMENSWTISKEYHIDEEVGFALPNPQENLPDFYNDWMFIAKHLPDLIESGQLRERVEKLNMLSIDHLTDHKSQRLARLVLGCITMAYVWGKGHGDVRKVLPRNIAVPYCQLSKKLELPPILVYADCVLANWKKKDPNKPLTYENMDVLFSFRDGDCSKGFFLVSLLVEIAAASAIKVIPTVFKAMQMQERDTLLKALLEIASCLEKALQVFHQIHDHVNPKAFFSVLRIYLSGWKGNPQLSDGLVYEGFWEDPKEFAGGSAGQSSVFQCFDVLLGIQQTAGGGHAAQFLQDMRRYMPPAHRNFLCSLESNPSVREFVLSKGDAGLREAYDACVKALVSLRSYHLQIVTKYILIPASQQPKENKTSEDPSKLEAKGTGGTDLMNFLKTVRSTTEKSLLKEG
value_type: IDO1 protein level by immunoblotting (in words)

Cc1ccc(NC(=O)OC[C@]23CN(S(=O)(=O)c4ccc(C(C)(C)C)cc4)C[C@H]2C[C@H]2C[C@@H]3C2(C)C)cc1 :: modulate IDO1 abundance
CC(C)(C)c1ccc(S(=O)(=O)N2C[C@H]3C[C@H]4C[C@H](C4(C)C)[C@@]3(COC(=O)Nc3ccc(I)cc3)C2)cc1 :: modulate IDO1 abundance
